species: Rattus norvegicus; assay: Open TG-GATES - Regimen: Single; assay type: toxicity, organism-based, Sprague-Dawley; set-up: regimen Single, gender Male, age 6 weeks; conditions: in vivo, po, 300 mg/kg, 6 h, tissue Plasma, route gavage, dose level Middle

[
  {
    "compound": "CN/C(=N/CCSCc1nc[nH]c1C)NC#N [CIMETIDINE]",
    "RALB / g/dL": 3.4
  },
  {
    "compound": "CNC(=C[N+](=O)[O-])NCCSCc1ccc(CN(C)C)o1 [RANITIDINE]",
    "RALB / g/dL": 3.3
  },
  {
    "compound": "COC(=O)C1=C(C)NC(C)=C(C(=O)OC)C1c1ccccc1[N+](=O)[O-] [NIFEDIPINE]",
    "RALB / g/dL": 2.6
  },
  {
    "compound": "Cc1nnc2n1-c1ccc(Cl)cc1C(c1ccccc1Cl)=NC2 [TRIAZOLAM]",
    "RALB / g/dL": 2.5
  },
  {
    "compound": "O=C(OC[C@H]1O[C@@H](OC(=O)c2cc(O)c(O)c(OC(=O)c3cc(O)c(O)c(O)c3)c2)[C@H](OC(=O)c2cc(O)c(O)c(OC(=O)c3cc(O)c(O)c(O)c3)c2)[C@@H](OC(=O)c2cc(O)c(O)c(OC(=O)c3cc(O)c(O)c(O)c3)c2)[C@@H]1OC(=O)c1cc(O)c(O)c(OC(=O)c2cc(O)c(O)c(O)c2)c1)c1cc(O)c(O)c(OC(=O)c2cc(O)c(O)c(O)c2)c1 [TANNIC ACID]",
    "RALB / g/dL": 3.4
  }
]
